These entries and their values trace back to patent US20250304677A1.

Provide the reported Kd of each item.
biological target: T1, human folate receptor alpha (hFRα), recombinant protein (human, UniProt P15328 25-233); assay: BLI, FRα on AR2G biosensors, 1:1 model
T1 construct: Bought recombinant proteins (His-tagged, or biotinylated via Avi-tag, e.g. AcroBiosystems FO1-H82E2, F01-H52H1); also called hFOLR1; huFOLR1
T1 sequence (P15328 25-233 limits assumed): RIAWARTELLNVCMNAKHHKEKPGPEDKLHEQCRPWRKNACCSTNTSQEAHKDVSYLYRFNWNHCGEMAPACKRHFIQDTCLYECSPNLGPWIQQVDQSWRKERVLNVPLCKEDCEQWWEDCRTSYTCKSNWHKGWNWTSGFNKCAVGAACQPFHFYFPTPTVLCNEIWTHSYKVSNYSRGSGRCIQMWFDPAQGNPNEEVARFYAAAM
Supply the numeric figure in nM, leaving out any unit text.

Query: # query: Kd of entry VHH 2MFR7 (family 1) (VHH, also called 2MFRO7) VHH: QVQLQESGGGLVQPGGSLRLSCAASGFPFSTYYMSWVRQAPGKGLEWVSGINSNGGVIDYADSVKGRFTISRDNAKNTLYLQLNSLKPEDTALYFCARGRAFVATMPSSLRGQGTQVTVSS
Result: 70.9

Query: Please do the same for VHH 3MFR60 (family 10) (VHH) VHH: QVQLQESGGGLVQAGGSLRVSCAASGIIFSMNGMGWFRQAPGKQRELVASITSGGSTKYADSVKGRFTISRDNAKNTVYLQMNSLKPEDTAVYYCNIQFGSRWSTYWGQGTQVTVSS as well.
Result: 169
